Value source: patent US10080739B2

Recorded melting point for the following compounds

In [3]: df
Out[3]:
                            compound_smiles   assay_metric         result
0  Brc1ccc2[nH]cc(-c3nc(-c4cccc5ccccc45)c(-c4ccccc4)[nH]3)c2c1  melting point  308 to 310 °C
1  Oc1ccc(-c2[nH]c(-c3c[nH]c4ccc(Br)cc34)nc2-c2ccccc2)cc1O  melting point  210 to 215 °C
2  O=[N+]([O-])c1ccc2c3ccccc3c3nc(-c4c[nH]c5ccccc45)[nH]c3c2c1  melting point  365 to 366 °C
3  Cc1[nH]c2ccccc2c1-c1nc(-c2ccc(Cl)cc2)c(-c2ccc(Cl)cc2)[nH]1  melting point  165 to 167 °C
4  c1ccc(-c2[nH]c3ccccc3c2-c2nc3c4ccccc4c4ccccc4c3[nH]2)cc1  melting point  240 to 242 °C

melting point reading for Nc1ccc(-c2[nH]c(-c3c[nH]c4ccccc34)nc2-c2ccccc2)cc1 : 264 to 265 °C

Just so you know, measured melting point for COc1ccc(-c2nc(-c3c[nH]c4ccccc34)[nH]c2-c2ccccc2)cc1OC came out at 258 to 259 °C
